- Test system: MAP4K4
- conditionLabel: Compound Concentration (nM):1000;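 note: KINOMEscan scanMAX binding as percent activity remaining versus control; lower means stronger binding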
experimentalEndpoint: Percent Control

> print(dat)
                                   compound  observedmeasurement
1  COC(=O)Nc1nc2ccc(Oc3ccc(NC(=O)Nc4cc(C(F)(F)F)ccc4F)cc3)cc2s1.Cl [GW693917A]                  57%
2  Cl.O=S1CCN(Cc2ccc(-c3ccc4ncnc(Nc5ccc(OCc6ccccc6)c(F)c5)c4c3)o2)CC1 [GW576924A]                  91%
3  COc1cccc(-c2c[nH]c3c(N/N=C/c4ccncc4)ncnc23)c1 [GW814408X]                  65%

Parameter requested: Percent Control. Apply to each item below.
1. COc1ccc(COc2ccc(Cc3cnc(N)nc3N)cc2OC)cc1 [GW632580X]
2. CN(C)c1cc2c(Nc3ccc4c(cnn4Cc4ccccc4)c3)ncnc2cn1 [GW282974X]
3. COc1cc2ncnc(Nc3ccc4c(cnn4Cc4ccccc4)c3)c2cc1OC.Cl [GW282449A]

1: 100%; 2: 76%; 3: 100%

* * *

- Tested on: ROCK1
- conditionLabel: Compound Concentration (nM):1000
Assignment: determine reported Percent Control for the given molecules.
Answers are plain numbers, in %.

Recorded results for 2 molecules are shown here.
> print(dat)
                                   molecule    tgt  unitinfo  observedmeasurement
1  Cl.O=C(Nc1ccc(Oc2ccc3[nH]c(NC(=O)c4ccco4)nc3c2)cc1)Nc1cc(C(F)(F)F)ccc1F [GW683134A]  ROCK1         %                   73
2  COc1cc2ncnc(Nc3ccc4c(cnn4Cc4ccccc4)c3)c2cc1OC.Cl [GW282449A]  ROCK1         %                   94

Hey, quick one: what's Percent Control for each of these?
1. Cl.O=S1CCN(Cc2ccc(-c3ccc4ncnc(Nc5ccc(OCc6ccccc6)c(F)c5)c4c3)o2)CC1 [GW576924A]
2. O=C1Nc2ccc(C(=O)c3ccco3)cc2C1=Cc1cc(Cl)c(O)c(Cl)c1 [GW406108X]
3. O=C(Nc1n[nH]c2nc(-c3ccc(O)cc3)c(Br)cc12)C1CC1
4. CCS(=O)(=O)c1ccc(OC)c(Nc2ncc(-c3cccc(OC)c3)o2)c1 [GW580509X]

1. 100
2. 77
3. 100
4. 100

# return Percent Control for each item in the list
1. COC(=O)Nc1nc2ccc(Oc3ccc(NC(=O)Nc4cc(C(F)(F)F)ccc4F)cc3)cc2s1.Cl [GW693917A]
2. COc1ccc2[nH]c3c4[nH]c5ccc(OC)cc5c4c4c(c3c2c1)C(=O)NC4=O [GW296115X]

1: 79; 2: 72

* * *

- Test system: KIT(V559D,V654A)
- conditionLabel: Compound Concentration (nM):1000
experimentalEndpoint: Percent Control

> print(dat)
                                   compound               tgt  experimentalendpoint  observedmeasurement
1  COc1ccc2c(-c3ccnc(Nc4cccc(OC(F)(F)F)c4)n3)cnn2n1 [GW810372X]  KIT(V559D,V654A)       Percent Control                 100%

Hi, could you look up Percent Control for each item in my list?
1. NS(=O)(=O)c1ccc(N/N=C2\C(=O)Nc3ccc(Cl)cc32)cc1 [GW280670X]
2. C/C(Nc1ccc(S(N)(=O)=O)cc1)=C1/C(=O)Nc2ccccc21 [GW335962X]
3. NS(=O)(=O)c1ccc(Nc2ncc(-c3ccccc3)o2)cc1 [GW572399X]
4. CC1=C(C(=O)Nc2ccc3[nH]ncc3c2)C(c2ccc3ccccc3c2)CC(=O)N1 (centres unmarked) [GSK270822A]
5. NS(=O)(=O)c1ccc(N/N=C2\C(=O)Nc3ccc(C(=O)NCCc4c[nH]cn4)cc32)cc1 [GW300660X]
6. Cl.O=C(Nc1ccc(Oc2ccc3[nH]c(NC(=O)c4ccco4)nc3c2)cc1)Nc1cc(C(F)(F)F)ccc1F [GW683134A]
7. COc1ccc2[nH]c3c4[nH]c5ccc(OC)cc5c4c4c(c3c2c1)C(=O)NC4=O [GW296115X]

["58%", "87%", "100%", "98%", "100%", "10%", "66%"]
